Each record here notes measured residual activity.
target: Ribosomal protein S6 kinase alpha-5 (Homo sapiens) (UniProt O75582); details: at 10 µM
Sequence (O75582 whole entry, looked up): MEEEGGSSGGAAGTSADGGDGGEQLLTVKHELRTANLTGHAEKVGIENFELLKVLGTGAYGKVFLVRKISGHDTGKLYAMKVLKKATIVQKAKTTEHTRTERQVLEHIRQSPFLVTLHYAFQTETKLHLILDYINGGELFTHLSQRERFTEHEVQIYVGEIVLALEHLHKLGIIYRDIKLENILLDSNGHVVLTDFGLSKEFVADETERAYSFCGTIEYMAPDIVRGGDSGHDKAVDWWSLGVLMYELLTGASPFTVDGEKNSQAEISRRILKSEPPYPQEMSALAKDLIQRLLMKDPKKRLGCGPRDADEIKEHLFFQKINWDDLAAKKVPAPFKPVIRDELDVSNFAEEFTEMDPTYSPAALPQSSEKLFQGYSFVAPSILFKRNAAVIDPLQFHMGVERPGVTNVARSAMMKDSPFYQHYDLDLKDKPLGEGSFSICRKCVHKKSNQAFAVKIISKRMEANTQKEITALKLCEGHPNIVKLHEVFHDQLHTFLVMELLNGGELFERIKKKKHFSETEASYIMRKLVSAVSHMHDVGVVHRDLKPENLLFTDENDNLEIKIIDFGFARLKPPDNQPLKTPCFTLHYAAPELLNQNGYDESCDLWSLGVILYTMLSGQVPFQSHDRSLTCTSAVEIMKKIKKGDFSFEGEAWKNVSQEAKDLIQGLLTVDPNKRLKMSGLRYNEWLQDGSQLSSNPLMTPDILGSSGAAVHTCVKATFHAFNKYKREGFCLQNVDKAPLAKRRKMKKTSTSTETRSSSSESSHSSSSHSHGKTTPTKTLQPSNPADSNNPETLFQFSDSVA
Quantity name: residual activity

# Molecular string, Experimental result
measured = [
    ("O=C1Nc2ccc3ncsc3c2/C1=C/c1c[nH]cn1", "7%"),
    ("O=[N+]([O-])/C=C/c1ccc2c(c1)OCO2", "110%"),
    ("c1cc(-c2cnn3cc(-c4ccc(OCCN5CCCCC5)cc4)cnc23)ccn1", "60%"),
    ("O=c1[nH]c2ccccc2n1C1CCN(Cc2ccc(-c3nc4cc5[nH]cnc5cc4nc3-c3ccccc3)cc2)CC1", "106%"),
]
